Hello, the source for this data is ChEMBL document CHEMBL1135398, in case you need it.

Molecular target: P2Y purinoceptor 2 (Homo sapiens)
Sequence (P41231 whole entry): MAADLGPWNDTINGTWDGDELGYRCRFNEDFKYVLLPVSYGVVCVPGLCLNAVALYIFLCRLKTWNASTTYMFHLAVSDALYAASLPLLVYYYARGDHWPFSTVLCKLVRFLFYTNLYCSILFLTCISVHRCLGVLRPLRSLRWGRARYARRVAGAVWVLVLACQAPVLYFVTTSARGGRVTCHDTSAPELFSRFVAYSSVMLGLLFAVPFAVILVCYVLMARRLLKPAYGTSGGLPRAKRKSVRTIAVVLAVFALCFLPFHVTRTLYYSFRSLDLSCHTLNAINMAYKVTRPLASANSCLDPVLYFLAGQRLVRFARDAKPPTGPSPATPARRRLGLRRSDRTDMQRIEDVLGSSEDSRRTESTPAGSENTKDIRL
Assay: Measure of Agonist Potency at human P2Y purinoceptor 2 (hP2Y2) stably expressed in […] astrocytoma cell
pEC50: −log10 of the molar value.
readout: pEC50

(1) Nc1ncnc2c1ncn2[C@H]1[C@H](O)[C@H](O)[C@]2(COP(=O)(O)OP(=O)(O)OP(=O)(O)O)C[C@H]12 (stereo in doubt; form 1)
(2) O=c1ccn([C@H]2[C@H](O)[C@H](O)[C@]3(COP(=O)(O)OP(=O)(O)OP(=O)(O)O)C[C@H]23)c(=O)[nH]1 (stereo in doubt; form 2)
input: Compare pEC50: is it lower for 1 or for 2 ? State the label of the item chosen.
output: 1

---

Target: P2Y purinoceptor 1 (Homo sapiens)
Sequence (P47900 whole entry): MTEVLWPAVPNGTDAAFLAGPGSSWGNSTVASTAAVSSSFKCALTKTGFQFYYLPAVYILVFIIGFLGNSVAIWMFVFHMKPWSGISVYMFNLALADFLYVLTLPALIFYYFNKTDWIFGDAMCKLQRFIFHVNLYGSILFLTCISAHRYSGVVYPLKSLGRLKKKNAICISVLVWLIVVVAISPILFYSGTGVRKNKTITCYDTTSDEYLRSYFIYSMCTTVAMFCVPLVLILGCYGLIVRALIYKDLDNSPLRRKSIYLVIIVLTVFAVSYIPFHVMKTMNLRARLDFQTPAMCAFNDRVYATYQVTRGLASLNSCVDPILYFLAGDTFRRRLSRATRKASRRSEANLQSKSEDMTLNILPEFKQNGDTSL
Assay: Measure of Agonist Potency at human P2Y purinoceptor 1 (hP2Y1) stably expressed in […] astrocytoma cell
pEC50: −log10 of the molar value.
readout: pEC50

(a) Nc1ncnc2c1ncn2[C@@H]1O[C@H](COP(=O)(O)O)[C@@H](O)[C@H]1O (stereo in doubt; form 3) [ADENOSINE PHOSPHATE]
(b) Nc1ncnc2c1ncn2[C@@H]1O[C@H](COP(=O)(O)O)[C@@H](O)[C@H]1O (stereo in doubt; form 4) [ADENOSINE PHOSPHATE]
input: Compare pEC50: is it lower for a or for b ? State the label of the item chosen.
output: b
